TARGET OR SYSTEM: B-Raf V600E (Homo sapiens (Human), UniProt P15056, V600E)
Sequence (P15056 whole entry V600E): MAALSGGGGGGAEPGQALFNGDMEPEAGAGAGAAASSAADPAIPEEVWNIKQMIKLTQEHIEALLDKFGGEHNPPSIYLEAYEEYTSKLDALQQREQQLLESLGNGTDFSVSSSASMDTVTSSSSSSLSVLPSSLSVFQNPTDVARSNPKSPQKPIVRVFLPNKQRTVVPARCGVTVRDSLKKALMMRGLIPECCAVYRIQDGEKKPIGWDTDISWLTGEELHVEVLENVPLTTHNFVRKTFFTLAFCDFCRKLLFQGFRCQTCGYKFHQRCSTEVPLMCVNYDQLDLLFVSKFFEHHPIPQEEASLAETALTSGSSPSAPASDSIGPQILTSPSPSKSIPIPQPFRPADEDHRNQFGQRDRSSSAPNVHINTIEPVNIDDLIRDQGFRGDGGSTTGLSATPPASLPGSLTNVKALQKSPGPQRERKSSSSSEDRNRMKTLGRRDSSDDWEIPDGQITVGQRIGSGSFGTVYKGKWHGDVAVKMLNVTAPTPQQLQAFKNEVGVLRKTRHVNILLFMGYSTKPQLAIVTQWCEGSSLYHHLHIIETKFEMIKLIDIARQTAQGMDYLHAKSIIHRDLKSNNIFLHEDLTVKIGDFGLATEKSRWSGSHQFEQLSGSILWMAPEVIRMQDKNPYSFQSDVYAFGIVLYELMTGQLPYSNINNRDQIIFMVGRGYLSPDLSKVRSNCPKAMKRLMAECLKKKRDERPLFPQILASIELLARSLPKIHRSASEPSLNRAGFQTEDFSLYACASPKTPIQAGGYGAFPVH
PROTOCOL DETAILS: B-Raf V600E kinase activity biochemical assay (AlphaScreen, biotin-MEK1 substrate)
CONDITION DESCRIPTION: 100 μM ATP
MEASUREMENT LABEL: IC50

// query Form: Entry = CCN(C)S(=O)(=O)Nc1ccc(F)c(C(=O)c2c[nH]c3ncc(-c4ccc(Cl)cc4)cc23)c1F [P-0013] | System = B-Raf V600E (Homo sapiens (Human), UniProt P15056, V600E) | IC50 = ____
// result < 0.1 µM
